Across several publications, the following IC50 results were reported for IRAK4 (Homo sapiens (Human), UniProt Q9NWZ3).

{"compound": "CN1CCN(c2ccc(Nc3nc(N[C@H]4CC[C@H](N(C)C)CC4)c4c5c(sc4n3)CCC5)cc2)CC1", "IC50": "≤ 5 µM"}
{"compound": "CCC[C@H](N)c1cccc(-c2cc(N3CCCC(O)C3)c3cnn(-c4cccc(CO)n4)c3c2)n1 (stereo partly shown)", "IC50": "< 0.1 µM"}
{"compound": "CN(C)[C@H]1CC[C@H](Oc2ncnc3sc4c(c23)[C@@H](CC(=O)NCC(N)=O)CC4)CC1", "IC50": "< 5 µM"}
{"compound": "CC(C)(CO)c1noc(-c2cnc(Nc3ccc4c(c3)C(C)(C)OC4=O)nc2N[C@H](CO)c2ccccc2)n1", "IC50": "0.05 to 0.25 µM"}
{"compound": "Cn1cc(-c2cccc(-c3ncc(-c4cnn(C)c4)c(N4CCC(NS(C)(=O)=O)CC4)n3)c2)cn1", "IC50": "0.1 to 1 µM"}
{"compound": "CCCC[C@H](N)c1ccnc(-c2ccc3cnn(-c4cccc(CO)n4)c3c2)n1", "IC50": "< 0.1 µM"}
{"compound": "O=C(CCCc1cn(-c2ccccc2)c(NC(=O)c2cccc(-c3cccc4cn[nH]c34)c2)n1)NC1CC1", "IC50": "> 0.1 µM"}
{"compound": "Nc1cncc(-c2cc(C(=O)O)c3cnn(-c4cccc(C(F)(F)F)n4)c3c2)c1", "IC50": "< 0.1 µM"}
{"compound": "COCCc1ccc2ncnc(N[C@H]3CC[C@H](N4CCOCC4)CC3)c2c1", "IC50": "≤ 5 µM"}
{"compound": "c1ccc2c(c1)sc1ncnc(O[C@H]3CC[C@H](N4CCOCC4)CC3)c12", "IC50": "0.1 to 1 µM"}
